Entry source: ChEMBL document CHEMBL1156300

- procedure_summary: Selectivity ratio Ki for PDE4D4 to Ki for PDE4B3
experimental_readout: Ratio Ki

// solved cases for Ratio Ki follow
# entry_smiles, Ratio Ki
rows = [
    ("Cc1cc2c(NCCCN3CCN(C(=O)c4ccno4)CC3)nnc(-c3cccc([N+](=O)[O-])c3)c2n1C", "> 20"),
    ("CCC(=O)N1CCN(CCCNc2nnc(-c3cccc(F)c3)c3c2cc2ccccn23)CC1", "> 20"),
]

Task: What value of Ratio Ki has been recorded for this entry: "Cc1cc2c(NCCCN3CCN(C(=O)c4ccncc4)CC3)nnc(-c3cccc([N+](=O)[O-])c3)c2n1C"
Output: > 2
